Reference for the values: patent US20190284262A1

- test system: T1, Foxp3-7 peptide/HLA-A*02:01 complex on the cell surface (human)
- T1 construct: also called Foxp3-7/HLA-A2 complex
- protocol notes: flow cytometry, phage on T2 + Foxp3-7 peptide; secondary only 318, unstained 95.8
Below, each entry is listed alongside its reported Median:FITC-A.
Write the value as a bare number.

Ask: Look up Median:FITC-A for this binder: EXT017-26 scFv phage clone (scFv, also called phage clone #26) scFv: SYVLTQPPSVSVAPGQTARITCGGTDIRRKTVHWYQQKPGLAPVLVLYDDSDRPSGIPERFSGSNSGNTATLTISRVEGGDEADYYCQVWDNDNDHYVFGPGTKVTVLGSRGGGGSGGGGSGGGGSLEMAEVQLVQSGAEVKKPGASVKVSCKASGYTFTNYYIHWVRQTPGEGLEWMGIIRPSGGNTNYAQKFQGRVTMTRDTSTRTVYMELSSLRSEDTAVYYCARSWDTFSDEWGQGTLVTVSSTSGQAGQHHHHHHGAYPYDVPDYAS
Result: 1880

Ask: Median:FITC-A lookup needed for EXT017-28 scFv phage clone (scFv, full-length scFv with His+HA tags; also called EXT017-28 phage; phage clone #28) scFv: QSVLTQPPSVSGAPGQRVTISCTGSSSNIGAGYDVHWYQQLPGTAPKLLIYGNSDRPSGVPDRFSGSKSGTSASLAITGLQAEDEADYYCQSYDSSLSGYVFGTGTKVTVLGSRGGGGSGGGGSGGGGSLEMAQMQLVQSGAEVKKPGSSVKVSCKASGGTFSTYAISWVRQAPGQGLEWMGGIIPIFGTANYAQKFQGRVTITADKSTSTAYMEVRNLRSEDTAVYYCARAEYVYGEYDQWGQGTLVTVSSTSGQAGQHHHHHHGAYPYDVPDYAS , thanks.
Result: 1740

Ask: Report Median:FITC-A for EXT017-53 scFv phage clone (scFv, full-length scFv with His+HA tags; also called EXT017-53 phage) scFv: NFMLTQPHSVSESPGKTVTISCTRSSGSIASHYVQWYQQRPGSSPTTVIYENNQRPSGVPDRFSGSIDSSSNSASLTISGLKTEDEADYYCQSYDRSNHVVFGGGTKLTVLGSRGGGGSGGGGSGGGGSLEMAQVQLVQSGAEVKKPGASVKVSCKASGYTFTNYYIHWVRQAPGEGLEWMGIIRPSGGNTNYAQKFQGRVTMTRDTSTRTVYMELSSLRSEDTAVYYCARSWNSRDVDSWGQGTLVTVSSTSGQAGQHHHHHHGAYPYDVPDYAS please.
Result: 1050

Ask: GET /values?readout=Median:FITC-A&item= #34 (scFv, also called EXT017-34; EXT017-34 scFv phage clone) scFv (VL-linker-VH-His/HA tag): QSALTQPPSASGSPGQSVTISCTGTSSDVGAYNYVSWYQHYPGKAPKLMIYEVSERPSGVPDRFSGSKSGNTASLTVSGLQAEDEADYFCSSYAGSNNFVFGTGTKVTVLGSRGGGGSGGGGSGGGGSLEMAEVQLVQSGAEVKKPGSSVKVSCKASGGTFSSYAISWVRQAPGQGLEWMGRIIPILGIANYAQKFQGRVTITADKSSSTAYMALSSLTSEDTAVYYCARGGDYVESWFDPWGQGTLVTVSSTSGQAGQHHHHHHGAYPYDVPDYAS
Result: 1050

Ask: Look up Median:FITC-A for this binder: #30 (scFv, also called EXT017-30; EXT017-30 scFv phage clone) scFv: SYVLTQPPSVSVAPGQTARMTCEGSNLGSKSVHWYQQKPGQAPVLVVHDDSDRPSGIPDRFSGSKSGNTATLTISRVEAGDEADYYCQVWHSSSDHYVFGTATKVTVLGSRGGGGSGGGGSGGGGSLEMAQVQLVQSGAEVKKPGASVKVSCKASGYTFTNYYIHWVRQAPGQGLEWMGIIRPSGGITNYAQKFQGRVSMTRDTSTSTVYMELSSLRSEDTAVYYCARSWHENSGVDSWGQGTLVTVSSTSGQAGQHHHHHHGAYPYDVPDYAS
Result: 1130

Ask: What measured Median:FITC-A goes with #25 (scFv, also called EXT017-25; EXT017-25 scFv phage clone) scFv (VL-linker-VH-His/HA tag): QSVLTQPPSVSAAPGQKVTISCSGSSSNIGNNYVSWYQFLPGTAPKLLIYDNNQRPSGIPDRFSGFKSGTSATLDITGLQTGDEADYYCGTWDNSLSAAVFGRGTKLTVLGSRGGGGSGGGGSGGGGSLEMAQMQLVQSGTEVKRAGASVKVSCKASGYTFTNYYMHWVRQAPGQGLEWMGIINPSGGSTTYAQKFQGRVTMTRDTSTSTVYMELSDLGSEDTAVYYCARSWSKTEGSDRWGQGTLVTVSSTSGQAGQHHHHHHGAYPYDVPDYAS ?
Result: 1030
